The origin of these recorded values is ChEMBL document CHEMBL3988442.

Biological target: Protein translocase subunit SecA (Escherichia coli (strain K12)) (UniProt P10408)
Sequence (P10408 whole entry): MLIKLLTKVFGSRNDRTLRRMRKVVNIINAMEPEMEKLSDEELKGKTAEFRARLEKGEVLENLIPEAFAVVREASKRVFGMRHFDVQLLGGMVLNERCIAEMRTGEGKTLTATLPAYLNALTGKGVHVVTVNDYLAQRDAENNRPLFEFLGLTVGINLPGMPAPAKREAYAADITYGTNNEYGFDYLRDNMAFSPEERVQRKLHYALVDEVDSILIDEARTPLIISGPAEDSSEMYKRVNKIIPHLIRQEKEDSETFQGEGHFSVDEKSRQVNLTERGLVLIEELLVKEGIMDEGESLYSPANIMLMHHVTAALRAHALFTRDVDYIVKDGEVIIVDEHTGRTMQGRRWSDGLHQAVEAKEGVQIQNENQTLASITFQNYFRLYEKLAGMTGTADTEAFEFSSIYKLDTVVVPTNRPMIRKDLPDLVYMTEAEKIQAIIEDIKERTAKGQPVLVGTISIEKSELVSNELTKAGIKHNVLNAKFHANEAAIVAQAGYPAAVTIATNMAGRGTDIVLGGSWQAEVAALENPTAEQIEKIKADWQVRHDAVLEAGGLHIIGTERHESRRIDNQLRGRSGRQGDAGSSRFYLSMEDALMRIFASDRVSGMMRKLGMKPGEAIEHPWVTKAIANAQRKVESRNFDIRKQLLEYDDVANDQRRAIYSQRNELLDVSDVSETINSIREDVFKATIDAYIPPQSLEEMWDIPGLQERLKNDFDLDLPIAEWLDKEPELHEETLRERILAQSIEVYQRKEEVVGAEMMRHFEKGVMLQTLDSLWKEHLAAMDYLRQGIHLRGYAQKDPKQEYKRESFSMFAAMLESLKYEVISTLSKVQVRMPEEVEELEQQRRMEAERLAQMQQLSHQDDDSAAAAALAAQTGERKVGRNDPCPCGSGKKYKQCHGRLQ
Test: Assay to Identify E. coli SecA ATPase Inhibitors
Format: functional
Set-up: scale not given: direction of the effect not stated beside the values
Conditions: 30 µM
Entries with a potency or affinity are not part of this list.
OBSERVED_PROPERTY: Percent Effect (%)
Answers are plain numbers, in %.

IN: I am curious: what Percent Effect value has been reported for c1ccc(-c2nnc(CNCCn3cccn3)o2)cc1 ?
OUT: -3.18

IN: I am curious: what Percent Effect value has been reported for COCc1ncn2c1CN(C(=O)C1CC=CC1)CC2 ?
OUT: -10.3

IN: I am curious: what Percent Effect value has been reported for c1ccc(CN2CC[C@@H]3O[C@@H](COCC4CCOCC4)CC[C@@H]32)nc1 ?
OUT: -4.64

For each of the items listed, what is its Percent Effect?
1. COc1ccc(S(=O)(=O)N2CCC(S(C)(=O)=O)CC2)cc1C
2. FC(F)(F)COCCN1CCCC(c2noc(C3CC3)n2)C1 (configuration not stated)
3. Cc1nnc(N2CCOC(Cn3cccn3)C2)c(C#N)c1C (configuration not stated)
4. NCC(c1ccccc1)N1CCc2sccc2C1 (configuration not stated)
5. O=C(CN(Cc1ccccc1)CC1CCOCC1)Nc1nccs1
6. CNC(=O)CSc1nc2c(cnn2Cc2ccc(F)cc2)c(=O)[nH]1
7. CCc1cnc(CN(C(C)=O)C2CCN(CCc3cccs3)C2)o1 (configuration not stated)
8. CCSCCC(=O)Nc1ncn(CC(=O)NCc2ccccc2)n1

OUT:
1: -3.14; 2: -2.95; 3: -1.71; 4: -1.09; 5: -4.59; 6: -1.62; 7: -3.22; 8: -4.92

IN: I am curious: what Percent Effect value has been reported for CCc1nc(NCC(=O)N2CCOCC2)c2c(n1)c(C)nn2CC ?
OUT: -2.78

###

Target: Ubiquitin-activating enzyme e1, putative (Leishmania donovani (strain BPK282A1)) (UniProt E9BSI1)
Sequence (E9BSI1 as listed by the source): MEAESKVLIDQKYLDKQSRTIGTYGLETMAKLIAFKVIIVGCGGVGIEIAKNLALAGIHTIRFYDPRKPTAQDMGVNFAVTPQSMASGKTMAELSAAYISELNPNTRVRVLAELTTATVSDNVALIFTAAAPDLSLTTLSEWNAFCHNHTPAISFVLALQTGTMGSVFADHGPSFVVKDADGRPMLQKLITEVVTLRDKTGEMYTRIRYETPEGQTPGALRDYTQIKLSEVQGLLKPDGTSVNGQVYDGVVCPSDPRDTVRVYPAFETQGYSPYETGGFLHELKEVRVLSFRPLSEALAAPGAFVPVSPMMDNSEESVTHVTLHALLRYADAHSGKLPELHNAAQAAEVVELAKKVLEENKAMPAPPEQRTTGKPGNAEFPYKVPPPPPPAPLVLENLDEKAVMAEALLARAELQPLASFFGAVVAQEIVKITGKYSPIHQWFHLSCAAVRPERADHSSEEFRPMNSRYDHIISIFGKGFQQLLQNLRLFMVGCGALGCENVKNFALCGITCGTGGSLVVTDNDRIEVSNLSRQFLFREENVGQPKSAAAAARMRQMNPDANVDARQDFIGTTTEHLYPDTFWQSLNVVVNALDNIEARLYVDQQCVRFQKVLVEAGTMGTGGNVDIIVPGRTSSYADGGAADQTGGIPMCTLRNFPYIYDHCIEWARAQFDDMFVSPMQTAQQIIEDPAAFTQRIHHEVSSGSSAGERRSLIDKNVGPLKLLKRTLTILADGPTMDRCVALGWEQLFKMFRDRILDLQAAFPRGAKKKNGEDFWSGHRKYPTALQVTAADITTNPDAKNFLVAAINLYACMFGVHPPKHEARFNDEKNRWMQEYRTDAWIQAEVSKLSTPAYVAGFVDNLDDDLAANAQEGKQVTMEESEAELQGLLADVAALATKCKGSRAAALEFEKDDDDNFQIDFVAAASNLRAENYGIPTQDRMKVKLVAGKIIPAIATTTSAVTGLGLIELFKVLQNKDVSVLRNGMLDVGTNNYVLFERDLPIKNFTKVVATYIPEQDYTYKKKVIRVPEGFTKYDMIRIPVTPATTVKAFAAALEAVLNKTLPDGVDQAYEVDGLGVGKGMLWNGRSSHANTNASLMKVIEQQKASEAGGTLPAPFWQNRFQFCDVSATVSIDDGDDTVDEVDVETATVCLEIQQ
Experiment: Leishmania donovani Ubiquitin Activating Enzyme (LdE1)
Format: functional
Parameters: scale not given: direction of the effect not stated beside the values
Conditions: 30 µM
Entries with a potency or affinity are not part of this list.
Record form. Attribute: Percent Effect. Fill in for each entry.
Give bare numbers, in %.

Some molecules with recorded Percent Effect:
IN: I am curious: what Percent Effect value has been reported for CCOCCCC(=O)NCCC(=O)N1CCN(c2ccccn2)CC1 ?
OUT: 7.89

IN: I am curious: what Percent Effect value has been reported for CC(C)c1noc(CCC(=O)NC(C)c2nnc3n2CCCCC3)n1 (centres undefined) ?
OUT: -2.7

IN: I am curious: what Percent Effect value has been reported for CCn1ncc2c1C(COC)CN(Cc1ccsc1)C2 (centres undefined) ?
OUT: 18.9

IN: I am curious: what Percent Effect value has been reported for O=C(NC1CC1)[C@H]1C[C@H]2OCC[C@H]2N(CC2CCOCC2)C1 ?
OUT: 0

IN: I am curious: what Percent Effect value has been reported for CCc1ccc(OCC(O)CN2CCN(S(C)(=O)=O)CC2)cc1 (centres undefined) ?
OUT: 7.79

IN: I am curious: what Percent Effect value has been reported for COC(=O)c1cccc(C(=O)N2CCN(c3ccccc3F)CC2)n1 ?
OUT: 20.8

IN: I am curious: what Percent Effect value has been reported for COc1cccc(S(=O)(=O)NC2CNC(=O)C2)c1 (centres undefined) ?
OUT: 2.74

IN: I am curious: what Percent Effect value has been reported for O=C(Cn1cc(I)cn1)N1CCc2ccccc2C1 ?
OUT: -12

For each of the items listed, what is its Percent Effect?
1. Fc1ccc(CN2CCC(c3nccnc3-n3ccnc3)CC2)cc1
2. CCc1ncc(C(=O)N2CCCCC2Cn2cccn2)s1 (centres undefined)
3. CS(=O)(=O)NC[C@H]1OC[C@@H]2CCN(Cc3ccc(F)cc3)C[C@@H]21
4. COc1cccc(CN(C)C(=O)CCC(=O)c2ccc(Cl)cc2)c1OC

OUT:
[17.6, 0, 13.3, -5.48]

For each of the items listed, what is its Percent Effect?
1. CC(C)Oc1ccccc1CNC(=O)N1CCC(n2cncn2)CC1
2. OC(COc1ccccc1)CN1CCC(c2ccn[nH]2)CC1 (centres undefined)
3. CCNc1cc2c(nn1)CCN(C(=O)c1ccnc(N(C)C)c1)C2
4. Cc1cc(CN2CCN(C(=O)CCc3cccc(F)c3F)CC2)on1
5. CCCn1nc2c(cc1=O)CN(Cc1cc(C)on1)CC2

OUT:
[11.4, 15.2, 5.26, 0, -2.7]

For each of the items listed, what is its Percent Effect?
1. COc1ccc(-c2noc(C(=O)NCCN3CCCCC3)n2)cc1OC
2. Cc1nc(O)cc(C2CCN(Cc3cccc(F)c3F)C2)n1 (centres undefined)
3. O=C(c1cccnc1-n1cccn1)N1CCN(CC2CC2)CC1
4. CN(Cc1nnc(C2CC2)n1C)C1CCN(Cc2ccccc2F)C1 (centres undefined)
5. NC(=O)COc1cccc(C(=O)N2CCCC(n3cccn3)C2)c1 (centres undefined)

OUT:
14.7
20.3
5.41
-5.48
13.5

For each of the items listed, what is its Percent Effect?
1. O=C(Cc1ccc2c(c1)OCCO2)N1CCCC(n2cccn2)C1 (centres undefined)
2. Cc1cccc(C2(CNC(=O)CCNS(C)(=O)=O)CCCC2)c1

OUT:
1. 2.6
2. 15.2

###

Biological target: Proteasome subunit beta (Trypanosoma cruzi)
Experiment: Trypanosoma cruzi proteasome chymotrypsin-like activity (TcProtChymo) assay. Also: in the data most compounds retested in dose-response had high values.
Type: functional
Set-up: scale not given: direction of the effect not stated beside the values
Settings: 9.37 µM
In plain terms, low Percent Effect, meaning strictly below 10%, gives y, and everything else gives n.

IN: A record lists Cn1nnc2c1CCN(CC1CC1)C2COCc1ccccc1 (stereo unspecified) . Is its Percent Effect below 10%?
OUT: y

IN: A record lists Cc1cnn(CC2CN(Cc3nnc(-c4occc4C)o3)CCO2)c1 (stereo unspecified) . Is its Percent Effect below 10%?
OUT: y

IN: A record lists COc1ccc(NC(=O)NCC(O)c2ccc(F)cc2F)c(OC)c1 (stereo unspecified) . Is its Percent Effect below 10%?
OUT: n

IN: A record lists COc1ccccc1CC1CCCN(CCC#N)C1 (stereo unspecified) . Is its Percent Effect below 10%?
OUT: y

Further cases:
IN: A record lists CCc1nccn1C1CCCN(C(=O)c2cn3cccnc3n2)C1 (stereo unspecified) . Is its Percent Effect below 10%?
OUT: y

IN: A record lists COc1ccc(C(=O)NS(=O)(=O)c2cncc(Br)c2)cc1OC . Is its Percent Effect below 10%?
OUT: y

IN: A record lists Cc1nc(Nc2ncccn2)cc(C2CCCN2C2CCOCC2)n1 (stereo unspecified) . Is its Percent Effect below 10%?
OUT: y

IN: A record lists CN(C)C(=O)NCc1cc2n(n1)CCN(C[C@H]1[C@@H]3CNC[C@@H]31)C2 . Is its Percent Effect below 10%?
OUT: y

IN: A record lists CC(C)NC(=O)C1CN(C(=O)c2ccc(F)cc2)CC12CCOCC2 (stereo unspecified) . Is its Percent Effect below 10%?
OUT: n

IN: A record lists CC(CNCc1ccncc1)Oc1ccccn1 (stereo unspecified) . Is its Percent Effect below 10%?
OUT: n

###

Record form. Attribute: Percent Effect. Fill in for each entry.
Target: Protein translocase subunit SecA (Escherichia coli (strain K12)) (UniProt P10408)
Experiment: Assay to Identify E. coli SecA ATPase Inhibitors
Format: functional
Set-up: scale not given: direction of the effect not stated beside the values
Conditions: 30 µM
Measured potencies and affinities stand elsewhere.
Answers are plain numbers, in %.

Some compounds with recorded Percent Effect:
IN: I am curious: what Percent Effect value has been reported for C=C(C)COCCNC(=O)C1CCCN1C(C)=O (stereo unspecified) ?
OUT: -2.72

IN: I am curious: what Percent Effect value has been reported for O=C(Cn1nc(-c2ccc(F)cc2)oc1=O)NCc1ccc(F)cc1 ?
OUT: 0.533

IN: I am curious: what Percent Effect value has been reported for Cc1nc(-c2ccccc2)n(CC(=O)NCC(C)C)n1 ?
OUT: -1.39

IN: I am curious: what Percent Effect value has been reported for Cn1cccc1CCC(=O)N1CCC2(CC1)c1ccccc1CC2O (stereo unspecified) ?
OUT: 0.249

IN: I am curious: what Percent Effect value has been reported for CC(=O)c1cccc(S(=O)(=O)N2CSCC2C(=O)NCC(F)(F)F)c1 (stereo unspecified) ?
OUT: -3.05

For each of the items listed, what is its Percent Effect?
1. COC(=O)c1cc(C(=O)N2CCOCC2(C)C)n(-c2ccccc2)n1
2. CC[C@@]1(O)CCN(C(=O)c2ccsc2)C[C@H]1O
3. CC(=O)Nc1nc(C2CCN(C(C)=O)CC2)cs1
4. CSCCC1c2nc[nH]c2CCN1Cc1cc(Cl)ccc1O (stereo unspecified)

OUT:
-2.65
-3.94
0.424
-4.06

For each of the items listed, what is its Percent Effect?
1. COC(=O)c1ccc(N2CCN(CCN3CCOCC3)C(C)C2)cc1 (stereo unspecified)
2. O=S1(=O)CCN(Cc2cccnc2)[C@H]2CCN(c3ncccn3)CC[C@H]21

OUT:
1: -7.58; 2: -8.77
